Overview of reported pIC50 across a group of molecules:
Tested on: MDA-MB-231
Test: Cytotoxicity against human MDA-MB-231 cells assessed as inhibition of cell growth incubated for 72 hrs by MTT assay
Assay type: functional, cell-based
Conditions: MDA-MB-231, 72 h
pIC50 here: minus log base 10 of the concentration, concentration in moles per litre.

Smiles record: CC1=C[C@]2(C)C(=C(C)[C@@H]3[C@@H]4C[C@H](C)C[C@H](C)[C@H]4[C@H]4Oc5ccc(cc5)CC(=O)[C@@H]5O[C@@]5(C(N)=O)C(=O)[C@H]2[C@@H]43)[C@@H]1C
pIC50: 5.49
--
Smiles record: CC1=C[C@]2(C)C(=C(C)[C@@H]3[C@@H]4C[C@H](C)C[C@H](C)[C@H]4[C@H]4Oc5ccc(cc5)C[C@]5(O)NC(=O)[C@]6(O[C@H]65)C(=O)[C@H]2[C@@H]43)[C@@H]1C
pIC50: 5.32
--
Smiles record: CO[C@@H]1/C2=C(\O)[C@H]3[C@H]4[C@H](Oc5ccc(cc5)C[C@]1(O)NC2=O)[C@H]1[C@@H](C[C@H](C)C[C@@H]1C)[C@H]4C(C)=C1[C@H](C)C(C)=C[C@]13C
pIC50: 6.40
--
Smiles record: CC1=C[C@]2(C)C(=C(C)[C@@H]3[C@@H]4C[C@H](C)C[C@H](C)[C@H]4[C@H]4Oc5ccc(cc5)C[C@@]5(O)C=C(C(=O)N5)C(=O)[C@H]2[C@@H]43)[C@@H]1C
pIC50: 6.40

Then there is this molecule:
Check MDA-MB-231 data and give pIC50 for CC(=O)O[C@]12Cc3ccc(cc3)O[C@@H]3[C@H]4[C@@H](C[C@H](C)C[C@@H]4C)[C@H]4C(C)=C5[C@H](C)C(C)=C[C@@]5(C)[C@@H](C(=O)[C@@]5(O[C@H]51)C(=O)N2)[C@@H]34 .
5.36

###

Test system: MDA-MB-435
Experiment: Cytotoxicity against human MDA-MB-435 cells assessed as inhibition of cell growth incubated for 72 hrs by MTT assay
Format: functional, cell-based
Conditions: MDA-MB-435, 72 h
Overview of reported IC50 across a group of molecules:
The reply should contain only the number, in µM.

Smiles record: CC1=C[C@]2(C)C(=C(C)[C@@H]3[C@@H]4C[C@H](C)C[C@H](C)[C@H]4[C@H]4Oc5ccc(cc5)C[C@@]5(O)C=C(C(=O)N5)C(=O)[C@H]2[C@@H]43)[C@@H]1C
Unit: µM
Endpoint result: 1.5
--
Smiles record: CC(=O)O[C@]12Cc3ccc(cc3)O[C@@H]3[C@H]4[C@@H](C[C@H](C)C[C@@H]4C)[C@H]4C(C)=C5[C@H](C)C(C)=C[C@@]5(C)[C@@H](C(=O)[C@@]5(O[C@H]51)C(=O)N2)[C@@H]34
Unit: µM
Endpoint result: 20
--
Smiles record: CC1=C[C@]2(C)C(=C(C)[C@@H]3[C@@H]4C[C@H](C)C[C@H](C)[C@H]4[C@H]4Oc5ccc(cc5)C[C@]5(O)NC(=O)[C@]6(O[C@H]65)C(=O)[C@H]2[C@@H]43)[C@@H]1C
Unit: µM
Endpoint result: 17
--
Smiles record: CC1=C[C@]2(C)C(=C(C)[C@@H]3[C@@H]4C[C@H](C)C[C@H](C)[C@H]4[C@H]4Oc5ccc(cc5)CC(=O)[C@@H]5O[C@@]5(C(N)=O)C(=O)[C@H]2[C@@H]43)[C@@H]1C
Unit: µM
Endpoint result: 18

Then there is this molecule:
Entry CO[C@@H]1/C2=C(\O)[C@H]3[C@H]4[C@H](Oc5ccc(cc5)C[C@]1(O)NC2=O)[C@H]1[C@@H](C[C@H](C)C[C@@H]1C)[C@H]4C(C)=C1[C@H](C)C(C)=C[C@]13C needs its IC50 filled in; supply it.
1.8

The measured values listed here are drawn from ChEMBL document CHEMBL5257048.
